Values were extracted from the DeepSol protein solubility set.

- Measurement Notes: soluble on expression in E. coli; label from the status in PepcDB or PDB records
Endpoint Name: soluble on expression in E. coli

Query Sequence: MGSDKIHHHHHHMRKLKIGITCYPSVGGSGIIATELGKQLAEKGHEIHFITSSIPFRLNTYHPNIHFHEVEVNQYAVFKYPPYDLTLASKIAEVAERENLDIIHAHYALPHAVCAYLAKQMLKRNIGIVTTLHGTDITVLGYDPSLKDLIRFAIESSDRVTAVSSALAAETYDLIKPEKKIETIYNFIDERVYLKKNTAAIKEKHGILPDEKVVIHVSNFRKVKRVQDVIRVFRNIAGKTKAKLLLVGDGPEKSTACELIRKYGLEDQVLMLGNQDRVEDLYSISDLKLLLSEKESFGLVLLEAMACGVPCIGTNIGGIPEVIKNNVSGFLVDVGDVTAATARAMSILEDEQLSNRFTKAAIEMLENEFSSKKIVSQYEQIYADLAEPE
Experimental Value: not soluble

Query Sequence: MIIKSISLMHDRGNGLGGGFAAYGIYPDFKEFFAFHLMYENGMALQLTEEYLERHFFVEHYEEIPTRRTPAIVHPPLFKRYFVKPLETPEYREAIDYQNMTDEDVVVRHVMAINNEIEGAFVVSSGKNMGAFKGVGYPEEIADFFRLEEYTGYIWTAHNRFPTNTPGWWGGAHPFTLLDWSIVHNGEISSYGINKRYLEMYGYVCTMLTDTEVVAYTLDLLIRKHGLTPELASLAMAAPFWDMIDGLPDDERQLLTAIRQVYGSALLNGPFAILFASNEGLIGLNDRVKLRPLVCATKDDFVYMASEEAAIREICPAPDKVWSPRGGEPVIVKMQPGVI
Experimental Value: not soluble

---

- Measurement Notes: soluble on expression in E. coli; label from the status in PepcDB or PDB records
Endpoint Name: soluble on expression in E. coli

Worked examples follow.
Query Sequence: AHHHHHHGSLKLVENVVGRVSEEENKVPEVQVPQSSIDEELKKIVEQIKARIYVVGVGGAGCNTVNRMMEVGVTGAKIIAVNTDAQDLLKVKAHQKILIGKELTRGLGAGNDPKIGEEAAKESERELRDALEGADMVFITCGLGGGTGTGAAPVIAEIARKMGALTVSVVTLPFTMEGIRRAKNAEYGLKRLVKYSDTVIVIPNDKLLEVAPKLPIQMAFKVADEILVQAVKGITELITKPGLVNLDFNDVRAVMKDGGVAMIGIGESDSEKRALEAAEQALNSPLLDVDISGATGALIHISGADVKLEEAQQIIEYVTRNVDPKAQVIWGIQLEPELEKTIRVMVVITGVTSRYITPEEETPLETPEESPSIEISIPEL
soluble on expression in E. coli: soluble
//
Query Sequence: GPGSMTAGAPTTVAGEYPRPSASLHPSVDCSSLNRVPTATAAAPPPPSPRLSGYVMPSVVNPYSQGASQQPAMAHVSEPVNPASYLQQANAMGRWSYQQPPLQQPQYPTLDPVATRVAAIDAEEAAMAAEEMTMRAKLAELQVARKQQEEEQLYLSHGWAQMLEKEERYYTEPVIDLRPDIMAREQQCAMLHNHLQQVEAQAQHAQSQLQGTEYILRDAESFEQERRRVQDAFQEVERRRRECVARAERYFDVEAKRVVEGNKVIRKLDSQLREMTQRGPLAQLQDGNRHPFHRS
soluble on expression in E. coli: not soluble
//
Query Sequence: ASHSRKFLDVRSEEELLSCIKKETEAGKLPPNVAAGMEELYQNYRNAVIESGNPKADEIVLSNMTVALDRILLDVEDPFVFSSHHKAIREPFDYYIFGQNYIRPLIDFGNSFVGNLSLFKDIEEKLQQGHNVVLISNHQTEADPAIISLLLEKTNPYIAENTIFVAGDRVLADPLCKPFSIGRNLICVYSKKHMFDIPELTETKRKANTRSLKEMALLLRGGSQLIWIAPSGGRDRPDPSTGEWYPAPFDASSVDNMRRLIQHSDVPGHLFPLALLCHDIMPPPSQVEIEIGEKRVIAFNGAGLSVAPEISFEEIAATHKNPEEVREAYSKALFDSVAMQYNVLKTAISGKQGLGASTADVSLSQPW
soluble on expression in E. coli: soluble
//
Query Sequence: MTPYAFTDPRKSELYVVEGDSAGGSAKSGRDSMFQAILPLRGKIINVEKARIDRVLKNTEVQAIITALGTGIHDEFDIGKLRYHKIVLMADADVDGQHISTLLLTLLFRFMRPLIENGHVFLAQPPLYKLKWQRSDPEFAYSDRERDGLLEAGLKAGKKINKEDGIQRYKGLGEMDAKELWETTMDPSVRVLRQVTLDDAAAADELFSILMGEDVDARRSFITRNAKDVRFLDVKLAAALEHHHHHH
soluble on expression in E. coli: soluble
//
Query Sequence: MAILYSKMKRSVTIKLQPSKEQEKILFELADVGAKVWNRVNYLRRQEFFEGKLVDFNRTEKIVYEEFKQETGSATVQQIARKNAEAWRSFFTNCPSGSSQNHQTTLEHHHHHH
soluble on expression in E. coli: not soluble
//
Query Sequence: MGSDKIHHHHHHAMSNKPVVLQGQIEATEIRISGKLPGRIDTFLVREGQYVKMGDTLVVINSPEAWAKFQQVNALEDIAKFQNKKIDDGTRRQIVRSVEELWNKSKSDLQLATVTYDRIQALYKDSVVTSQRKDEVEAMYKAAVAAERAAHQQFLLVKDGAQKEDKESARSLVDAARGTVNEVQALLMDARLTAPEDGQISTIYPKRGELVGAGTPIMSLVVLDDCHVVLNVREDYMPYFRMNENFMGDIPALDVKNKAFKINYISPLGSFATWRSTKQTGTYDMKTFEIHALPVEPMEGLRPGMSVLVNLDELK
soluble on expression in E. coli: not soluble

Query: Requested read-out: soluble on expression in E. coli. Entry: MSLKLIATDMDGTLLRSNGEFPNEFPLILDSLLNKNIMFSVASGRQYFTLKDNMAGFEDKITFIAENGAFIVKDGKELFAKTLDRDMLSKVVDDAKKVPDCKLVLCGKKSAYVLDKSSAFIEEVEKYYHKSAVVNSLDEIDDEFFKIAICDYKGSANNSNVLLSPKWGKLFQLTVSGDIWLDIGRNDVNKGTAIKFLQDKFNINENETMAFGDYYNDVSMLQSVYHSYVMENAPDGVKKHGRFIAKSNDESGVIQVIKNKVLELGAEGHHHHHH
Response: soluble
